Below, each entry is listed with its recorded relative viability.
tested on: HCC-44; assay: relative viability (nuclei count vs DMSO), 5 days (fraction); higher = more cells survive; settings: first compound 0.8 µM

COMPOUND	relative viability
CCCCCCCCCCCC1=C(O)C(=O)C=C(O)C1=O [Embelin] + CC(C)C[C@H](NC(=O)[C@H](Cc1ccccc1)NC(=O)c1cnccn1)B(O)O [Bortezomib] (partner 0.002 µM)	0.865
CCCCCCCCCCCC1=C(O)C(=O)C=C(O)C1=O [Embelin] + CS(=O)(=O)CCNCc1ccc(-c2ccc3ncnc(Nc4ccc(OCc5cccc(F)c5)c(Cl)c4)c3c2)o1 [Lapatinib] (partner 2 µM)	1.02
CCCCCCCCCCCC1=C(O)C(=O)C=C(O)C1=O [Embelin] + COc1cccc2cc(-c3nc([C@H]4CC[C@H](C(=O)O)CC4)n4ncnc(N)c34)[nH]c12 [OSI-027] (partner 0.5 µM)	0.479
CCCCCCCCCCCC1=C(O)C(=O)C=C(O)C1=O [Embelin] + Cc1nc(NC(=O)N2CCC[C@H]2C(N)=O)sc1-c1ccnc(C(C)(C)C(F)(F)F)c1 [Alpelisib] (partner 2 µM)	0.767
CCCCCCCCCCCC1=C(O)C(=O)C=C(O)C1=O [Embelin] + CC(=O)c1c(C)c2cnc(Nc3ccc(N4CCNCC4)cn3)nc2n(C2CCCC2)c1=O [Palbociclib] (partner 0.5 µM)	1.02
CCCCCCCCCCCC1=C(O)C(=O)C=C(O)C1=O [Embelin] + CC(=O)Nc1cccc(-n2c(=O)n(C3CC3)c(=O)c3c(Nc4ccc(I)cc4F)n(C)c(=O)c(C)c32)c1 [Trametinib] (partner 0.02 µM)	1.08
CCCCCCCCCCCC1=C(O)C(=O)C=C(O)C1=O [Embelin] + N=C(N)NC(=N)NCCc1ccccc1 [Phenformin] (partner 250 µM)	0.252
CCCCCCCCCCCC1=C(O)C(=O)C=C(O)C1=O [Embelin] + C[C@@H](Oc1cc(-c2cnn(C3CCNCC3)c2)cnc1N)c1c(Cl)ccc(F)c1Cl [Crizotinib] (partner 1 µM)	0.803
